- System: OVCAR3 cells
- assay-remarks: MTT proliferation assay, OVCAR3;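 note: compound given as an 8- or 10-point series, one day after plating, with exposure covering roughly 3-4 cell doublings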
- Type: cell-based
- test-parameters: 5 days compound exposure, 1:3 serial dilution starting at 10 μM
*1 amine or outer side, *2 acyl side, *3 side chain or, on linkers, in order; H or OH if unused. Where a SMILES comes first, the peptide text is derived from it. Bridges are numbered along the chain shown (N, C = ends). [ ]: non-standard residue; d: D form. The star is where a group is joined. X34 = CN1CC(N2CCN(c3ccc(-c4ccc(Cl)cc4C[C@@H](C(=O)[*:2])N(C)[*:1])cc3)CC2)C1; X42 = CN([C@@H](Cc1cc(Cl)ccc1-c1cnn(S(=O)(=O)C2CC2)c1)C(=O)[*:2])[*:1]; NMeAla(5-Cl-2-cPrO-3-pyridyl) = CN[C@@H](Cc1cc(Cl)cnc1OC1CC1)C(=O)O; X149 = CN([C@@H](Cc1cc(Cl)ccc1-c1ccnc(N2CCOCC2)c1F)C(=O)[*:2])[*:1]; X37 = CN1CCN(c2ccc(-c3ccc(F)cc3C[C@@H](C(=O)[*:2])N(C)[*:1])cn2)CC1; X19 = CN([C@@H](Cc1cc(Cl)ccc1-c1ccn2ccnc2c1)C(=O)[*:2])[*:1]; NMehhhLys(Me) = CN([C@@H](CCCCCCCN(C)[*:3])C(=O)[*:2])[*:1]; X163 = CN([C@@H](Cc1cc(Cl)ccc1N1CCOCC1)C(=O)[*:2])[*:1]; X64 = CN([C@@H](Cc1cc(Cl)ccc1OC1(C)CC1)C(=O)[*:2])[*:1]; NMe(hhhLys) = CN([C@@H](CCCCCCCN[*:3])C(=O)[*:2])[*:1]; Oxane2carbonyl(2R-CF3) = O=C([C@@]1(C(F)(F)F)CCCCO1)*; Cyclobutanecarbonyl(1-CF3) = O=C(C1(C(F)(F)F)CCC1)*; cBuCO(3,3-F2-1-CF3) = O=C(C1(C(F)(F)F)CC(F)(F)C1)*; Pro(trans-4-F) = O=C(O)[C@@H]1C[C@@H](F)CN1; Gly(cPr) = N[C@H](C(=O)O)C1CC1
Assignment: determine reported log10 of GI50 for the given compounds.
// stored as log10 of GI50 expressed in nM

# count of solved cases: 3
compound: CC(C)C[C@@H]1NC(=O)[C@@H](N(C)C(=O)[C@@H](NC(=O)[C@@H]2C[C@@H](F)CN2C(=O)C2(C(F)(F)F)CCC2)C2CC2)CCCCCCCNC(=O)[C@H](Cc2cc(Cl)cnc2OC2CC2)N(C)C1=O [Example 108] ({Cyclobutanecarbonyl(1-CF3)}-[Pro(trans-4-F)][Gly(cPr)][NMe(hhhLys)]L[NMeAla(5-Cl-2-cPrO-3-pyridyl)]; lactam 3-C)
test-target: OVCAR3 cells
quantitative-readout: 1.48

compound: CCN1CCCCCCC[C@H](N(C)C(=O)[C@@H](NC(=O)[C@@H]2C[C@@H](F)CN2C(=O)C2(C(F)(F)F)CC(F)(F)C2)C2CC2)C(=O)N[C@@H](CC(C)C)C(=O)N(C)[C@@H](Cc2cc(Cl)ccc2-c2ccc(N3CCOCC3)cc2)C1=O [Example 404]
test-target: OVCAR3 cells
quantitative-readout: 1.48

compound: CC(C)C[C@@H]1NC(=O)[C@@H](N(C)C(=O)[C@@H](NC(=O)[C@@H]2C[C@@H](F)CN2C(=O)[C@@]2(C(F)(F)F)CCCCO2)C2CC2)CCCCCCCN(C)C(=O)[C@H](Cc2cc(Cl)ccc2OC2(C)CC2)N(C)C1=O [Example 260] ({Oxane2carbonyl(2R-CF3)}-[Pro(trans-4-F)][Gly(cPr)][NMehhhLys(Me)]L[X64]; lactam 3-C)
test-target: OVCAR3 cells
quantitative-readout: 1.60

Dear colleague, could you please provide log10 of GI50 for the compounds listed below?
1. CC(C)C[C@@H]1NC(=O)[C@@H](N(C)C(=O)[C@@H](NC(=O)[C@@H]2C[C@@H](F)CN2C(=O)[C@@]2(C(F)(F)F)CCCCO2)C2CC2)CCCCCCCN(C)C(=O)[C@H](Cc2cc(Cl)ccc2-c2cnn(S(=O)(=O)C3CC3)c2)N(C)C1=O [Example 283] ({Oxane2carbonyl(2R-CF3)}-[Pro(trans-4-F)][Gly(cPr)][NMehhhLys(Me)]L[X42]; lactam 3-C)
2. CC(C)C[C@@H]1NC(=O)[C@@H](N(C)C(=O)[C@@H](NC(=O)[C@@H]2C[C@@H](F)CN2C(=O)C2(C(F)(F)F)CC(F)(F)C2)C2CC2)CCCCCCCN(C)C(=O)[C@H](Cc2cc(Cl)ccc2-c2ccnc(N3CCOCC3)c2F)N(C)C1=O [Example 349] ({cBuCO(3,3-F2-1-CF3)}-[Pro(trans-4-F)][Gly(cPr)][NMehhhLys(Me)]L[X149]; lactam 3-C)
3. CC(C)C[C@@H]1NC(=O)[C@@H](N(C)C(=O)[C@@H](NC(=O)[C@@H]2C[C@@H](F)CN2C(=O)C2(C(F)(F)F)CC(F)(F)C2)C2CC2)CCCCCCCN(C)C(=O)[C@H](Cc2cc(F)ccc2-c2ccc(N3CCN(C)CC3)nc2)N(C)C1=O [Example 391] ({cBuCO(3,3-F2-1-CF3)}-[Pro(trans-4-F)][Gly(cPr)][NMehhhLys(Me)]L[X37]; lactam 3-C)

1.00
1.00
1.00

Dear colleague, could you please provide log10 of GI50 for the compounds listed below?
1. CC(C)C[C@@H]1NC(=O)[C@@H](N(C)C(=O)[C@@H](NC(=O)[C@@H]2C[C@@H](F)CN2C(=O)C2(C(F)(F)F)CC(F)(F)C2)C2CC2)CC=CCCCCNC(=O)[C@H](Cc2cc(Cl)ccc2C2=CCOCC2)N(C)C1=O [Example 17]
2. CC(C)C[C@@H]1NC(=O)[C@@H](N(C)C(=O)[C@@H](NC(=O)[C@@H]2C[C@@H](F)CN2C(=O)C2(C(F)(F)F)CCC2)C2CC2)CC=CCCCCN(C)C(=O)[C@H](Cc2cc(F)ccc2-c2cnn(CC(F)F)c2)N(C)C1=O [Example 83]
3. CC(C)C[C@@H]1NC(=O)[C@@H](N(C)C(=O)[C@@H](NC(=O)[C@@H]2C[C@@H](F)CN2C(=O)C2(C(F)(F)F)CC(F)(F)C2)C2CC2)CCCCCCCN(C)C(=O)[C@H](Cc2cc(Cl)ccc2N2CCOCC2)N(C)C1=O [Example 319] ({cBuCO(3,3-F2-1-CF3)}-[Pro(trans-4-F)][Gly(cPr)][NMehhhLys(Me)]L[X163]; lactam 3-C)
4. CC(=O)N1CC=C(c2ccc(Cl)cc2C[C@H]2C(=O)N(C)CCCCC=CC[C@H](N(C)C(=O)[C@@H](NC(=O)[C@@H]3C[C@@H](F)CN3C(=O)C3(C(F)(F)F)CC(F)(F)C3)C3CC3)C(=O)N[C@@H](CC(C)C)C(=O)N2C)CC1 [Example 31]
5. CC(C)C[C@@H]1NC(=O)[C@@H](N(C)C(=O)[C@@H](NC(=O)[C@@H]2C[C@@H](F)CN2C(=O)C2(C(F)(F)F)CC(F)(F)C2)C2CC2)CCCCCCCN(C)C(=O)[C@H](Cc2cc(Cl)ccc2-c2ccc(N3CCN(C4CN(C)C4)CC3)cc2)N(C)C1=O [Example 383] ({cBuCO(3,3-F2-1-CF3)}-[Pro(trans-4-F)][Gly(cPr)][NMehhhLys(Me)]L[X34]; lactam 3-C)

1. 2.75
2. 1.00
3. 1.30
4. 2.18
5. 1.00

// field: log10 of GI50; key: CC(C)C[C@@H]1NC(=O)[C@@H](N(C)C(=O)[C@@H](NC(=O)[C@@H]2C[C@@H](F)CN2C(=O)C2(C(F)(F)F)CC(F)(F)C2)C2CC2)CCCCCCCN(C)C(=O)[C@H](Cc2cc(Cl)ccc2-c2ccn3ccnc3c2)N(C)C1=O [Example 236] ({cBuCO(3,3-F2-1-CF3)}-[Pro(trans-4-F)][Gly(cPr)][NMehhhLys(Me)]L[X19]; lactam 3-C) ; value = 1.30
